From: patent US7863449B2

In this section, each of the compounds is paired with its reported Emax.
- TESTED_TARGET: M4 muscarinic receptor (Homo sapiens)
- Construct: expressed in transfected cells; host or cells: CHO (M4-CHO)
- Sequence (P08173 whole entry): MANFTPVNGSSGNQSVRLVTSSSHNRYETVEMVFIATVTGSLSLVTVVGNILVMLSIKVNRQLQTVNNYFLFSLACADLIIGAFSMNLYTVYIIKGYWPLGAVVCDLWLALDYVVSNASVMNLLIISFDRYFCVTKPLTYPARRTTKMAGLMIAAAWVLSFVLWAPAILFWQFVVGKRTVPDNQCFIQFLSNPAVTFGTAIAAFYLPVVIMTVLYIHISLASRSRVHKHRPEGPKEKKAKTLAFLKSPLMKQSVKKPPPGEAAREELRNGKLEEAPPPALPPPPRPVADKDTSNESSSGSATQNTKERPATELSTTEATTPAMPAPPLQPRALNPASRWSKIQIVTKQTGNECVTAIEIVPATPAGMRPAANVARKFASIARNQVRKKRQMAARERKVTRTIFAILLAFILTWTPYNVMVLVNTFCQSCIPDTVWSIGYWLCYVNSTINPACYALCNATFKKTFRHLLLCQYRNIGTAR
- ASSAY_NOTES: Functional mobilization of intracellular calcium (FLIPR), M4-CHO cells
- Format: cell-based
- RUN_CONDITIONS: 100% efficacy is the maximum response obtained using Carbachol as a control
Counter-ions that a name gives are not always drawn.

CCOC(=O)N1CCC(N2CCC3(CC2)OC(=O)c2ccc(C)cc23)CC1 [compound 277]
25 to 100%
CCOC(=O)N1C2CCC1CC(N1CCC3(CC1)CN(S(=O)(=O)c1ccc(OC(F)(F)F)cc1)Cc1ccccc13)C2 (centres unmarked) [compound 67]
25 to 100%
CCOC(=O)N1CCC(CN2CCC3(CC2)CN(C(C)=O)Cc2ccccc23)CC1 [compound 198, hydrochloride]
25 to 100%
CC(C)OC(=O)N1Cc2ccccc2C2(CCN(C3CC4CCC(C3)N4C(=O)O[C@@H]3CCOC3)CC2)C1 (some centres unmarked) [compound 195]
25 to 100%
CCCC1CCC(N2CCC3(CC2)CN(C(C)=O)Cc2ccccc23)CC1 (centres unmarked) [compound 326]
25 to 100%
CC(C)OC(=O)N1C2CCC1CC(N1CCC3(CC1)CN(S(C)(=O)=O)Cc1ccccc13)C2 (centres unmarked) [compound 154]
25 to 100%
CCOCCN1CCC2(CC1)CN(C(C)=O)Cc1ccccc12 [compound 256]
< 25%
CCOC(=O)N1CCC(CN2CCC3(CC2)CN(C(=O)c2cccs2)Cc2ccccc23)CC1 [compound 124]
25 to 100%

**Query** I am curious: what Emax value has been reported for CCOC(=O)N1CCC(CN2CCC3(CC2)CN(C(=O)OC)Cc2ccccc23)CC1 [compound 128] ?
**Result** 25 to 100%

**Query** Consider next the compound CC(=O)N1Cc2ccccc2C2(CCN(C3C4CC5CC(C4)CC3C5)CC2)C1 (centres unmarked) [compound 170] in the same way.
**Result** 25 to 100%

**Query** Note, next up: COc1ccc(CN2CCC3(CC2)CN(C(C)=O)Cc2ccccc23)cc1 [compound 66]
**Result** < 25%

**Query** Also need CC(=O)N1Cc2ccccc2C2(CCN(C3CCN(C(=O)OC4CCC4)CC3)CC2)C1 [compound 258] , thanks.
**Result** 25 to 100%

* * *

Item-by-item account of Emax
- TESTED_TARGET: M4 muscarinic receptor (Homo sapiens)
- Construct: expressed in transfected cells; host or cells: CHO (M4-CHO)
- ASSAY_NOTES: Functional mobilization of intracellular calcium (FLIPR), M4-CHO cells
- Assay type: cell-based
- RUN_CONDITIONS: 100% efficacy is the maximum response obtained using Carbachol as a control

Worked cases, answers included:
O=C1NC2(CCN(CC3CCOC3)CC2)c2ccccc21 (centres unmarked)
< 25%
CC(=O)N1Cc2ccccc2C2(CCN(Cc3ccoc3)CC2)C1
< 25%
CCOC(=O)N1CCC(N2CCC3(CC2)CN(C(=O)C(C)C)Cc2ccccc23)CC1
25 to 100%
CCOC(=O)N1C2CCC1CC(N1CCC3(CC1)CN(c1ccc(C)c(C)c1)Cc1ccccc13)C2 (centres unmarked)
25 to 100%
CN(C)C(=O)N1Cc2ccccc2C2(CCN(C3CC4CCC(C3)N4C(=O)OC3CCC3)CC2)C1 (centres unmarked)
25 to 100%
COC(=O)N1CCC(N2CCC3(CC2)CN(C(C)=O)Cc2ccccc23)CC1
25 to 100%
CCCOC(=O)N1C2CCC1CC(N1CCC3(CC1)CN(C(C)=O)Cc1ccccc13)C2 (centres unmarked)
25 to 100%
CC(=O)N1Cc2ccccc2C2(CCN(C3CCSCC3)CC2)C1
25 to 100%
CCOC(=O)C1CCC(N2CCC3(CC2)CN(C(C)=O)Cc2ccccc23)CC1 (centres unmarked)
25 to 100%
CCOC(=O)N1CCC(CN2CCC3(CC2)CN(S(=O)(=O)N(C)C)Cc2ccccc23)CC1
25 to 100%

**Query** What measured Emax goes with CCOC(=O)N1C2CCC1CC(N1CCC3(CC1)CN(C(=O)c1cc(C)n(C)n1)Cc1ccccc13)C2 (centres unmarked) ?
**Result** 25 to 100%

**Query** Okay, and CCOC(=O)N1C2CCC1CC(N1CCC3(CC1)CN(C(=O)Nc1c(C)noc1C)Cc1ccccc13)C2.Cl (centres unmarked) [compound 233, hydrochloride] ?
**Result** 25 to 100%

**Query** What do you have for CC(=O)N1Cc2ccccc2C2(CCN(Cc3ccccn3)CC2)C1 ?
**Result** < 25%

**Query** Next record, please: CCOC(=O)N1CCC(CN2CCC3(CC2)CN(C(=O)Nc2c(C)noc2C)Cc2ccccc23)CC1
**Result** 25 to 100%

**Query** Now consider CCOC(=O)N1CCC(N2CCC3(CC2)CN(C(=O)c2snnc2C)Cc2ccccc23)CC1 .
**Result** 25 to 100%

**Query** Here is the next compound: CCNC(=O)N1Cc2ccccc2C2(CCN(CC3CCN(C(=O)OCC)CC3)CC2)C1
**Result** 25 to 100%

**Query** Queued: CC(=O)CN1CCC2(CC1)CN(C(C)=O)Cc1ccccc12
**Result** 25 to 100%
